Assay: in vivo
Parameters: species or system mice
Conditions: male, athymic nude, mouse, 0.74 MBq, total radioactivity, uptake values in the blood, heart, liver, spleen, bone, and muscle
Metric Name: tissue uptake at 1 h

If you can, please state the reported tissue uptake at 1 h value of CSCC[C@H](NC(=O)[C@H](CC(C)C)NC(=O)[C@H](Cc1c[nH]cn1)NC(=O)CNC(=O)[C@@H](NC(=O)[C@H](C)NC(=O)[C@H](Cc1c[nH]c2ccccc12)NC(=O)[C@H](CCC(N)=O)NC(=O)CCCCCNC(=O)CC[C@H](NC(=O)COCCOCCOCCNC(=O)c1ccc([18F])cc1)C(=O)NCCCC[C@@H]1NC(=O)[C@@H](Cc2ccc(O)cc2)NC(=O)[C@H](CC(=O)O)NC(=O)CNC(=O)[C@H](CCCNC(=N)N)NC1=O)C(C)C)C(N)=O [^18F-FB-PEG3-RGD-BBN] . < 2 %ID/g

###

Experiment: MicroPET blood and normal organ uptake in T47D and MDA-MB-435 tumor-bearing nude mice
Conditions: nude, mouse, muscle, iv, total radioactivity
Metric Name: tissue uptake at 2 h (%ID/g)
Please respond with the number in %ID/g and leave the unit unwritten.

If you can, please state the reported tissue uptake at 2 h value of CSCC[C@H](NC(=O)[C@H](CC(C)C)NC(=O)[C@H](Cc1c[nH]cn1)NC(=O)CNC(=O)[C@@H](NC(=O)[C@H](C)NC(=O)[C@H](Cc1c[nH]c2ccccc12)NC(=O)[C@H](CCC(N)=O)NC(=O)CCCCCNC(=O)CC[C@H](NC(=O)COCCOCCOCCNC(=O)c1ccc([18F])cc1)C(=O)NCCCC[C@@H]1NC(=O)[C@@H](Cc2ccc(O)cc2)NC(=O)[C@H](CC(=O)O)NC(=O)CNC(=O)[C@H](CCCNC(=N)N)NC1=O)C(C)C)C(N)=O [^18F-FB-PEG3-RGD-BBN] . 0.15

###

Assay: in vivo
Conditions: male, athymic nude, mouse, in vivo, iv, 3.7 MBq, total radioactivity, PC-3 tumor uptake
Metric Name: tissue uptake at 0.5 h

[
  {
    "Molecule": "CSCC[C@H](NC(=O)[C@H](CC(C)C)NC(=O)[C@H](Cc1c[nH]cn1)NC(=O)CNC(=O)[C@@H](NC(=O)[C@H](C)NC(=O)[C@H](Cc1c[nH]c2ccccc12)NC(=O)[C@H](CCC(N)=O)NC(=O)CCCCCNC(=O)CC[C@H](NC(=S)Nc1ccc(C[C@H]2CN(CC(=O)O)CCN(CC(=O)O)CCN2CC(=O)O)cc1)C(=O)NCCCC[C@@H]1NC(=O)[C@@H](Cc2ccc(O)cc2)NC(=O)[C@H](CC(=O)O)NC(=O)CNC(=O)[C@H](CCCNC(=N)N)NC1=O)C(C)C)C(N)=O [^68Ga-NOTA-RGD-BBN, metal not drawn]",
    "tissue uptake at 0.5 h": "6.55 %ID/g"
  }
]

Proceeding to the next molecule to report its tissue uptake at 0.5 h.
If you can, please state the reported tissue uptake at 0.5 h value of CSCC[C@H](NC(=O)[C@H](CC(C)C)NC(=O)[C@H](Cc1c[nH]cn1)NC(=O)CNC(=O)[C@@H](NC(=O)[C@H](C)NC(=O)[C@H](Cc1c[nH]c2ccccc12)NC(=O)[C@H](CCC(N)=O)NC(=O)CCCCCNC(=O)CC[C@H](NC(=O)COCCOCCOCCNC(=O)c1ccc([18F])cc1)C(=O)NCCCC[C@@H]1NC(=O)[C@@H](Cc2ccc(O)cc2)NC(=O)[C@H](CC(=O)O)NC(=O)CNC(=O)[C@H](CCCNC(=N)N)NC1=O)C(C)C)C(N)=O [^18F-FB-PEG3-RGD-BBN] . 6.35 %ID/g

###

Experiment: in vivo
Conditions: mouse, in vivo, iv, total radioactivity, T/NT ratio, tumor/liver
Metric Name: tissue to tissue ratio at 2 h
Could you respond with only the numeric value?

If you can, please state the reported tissue to tissue ratio at 2 h value of CSCC[C@H](NC(=O)[C@H](CC(C)C)NC(=O)[C@H](Cc1c[nH]cn1)NC(=O)CNC(=O)[C@@H](NC(=O)[C@H](C)NC(=O)[C@H](Cc1c[nH]c2ccccc12)NC(=O)[C@H](CCC(N)=O)NC(=O)CCCCCNC(=O)CC[C@H](NC(=O)COCCOCCOCCNC(=O)c1ccc([18F])cc1)C(=O)NCCCC[C@@H]1NC(=O)[C@@H](Cc2ccc(O)cc2)NC(=O)[C@H](CC(=O)O)NC(=O)CNC(=O)[C@H](CCCNC(=N)N)NC1=O)C(C)C)C(N)=O [^18F-FB-PEG3-RGD-BBN] . 6.43

###

Assay: in vivo
Conditions: male, athymic nude, mouse, in vivo, iv, 5.5 MBq, total radioactivity, liver uptake
Metric Name: tissue uptake (%ID/g)
Please respond with the number in %ID/g and leave the unit unwritten.

If you can, please state the reported tissue uptake value of CSCC[C@H](NC(=O)[C@H](CC(C)C)NC(=O)[C@H](Cc1c[nH]cn1)NC(=O)CNC(=O)[C@@H](NC(=O)[C@H](C)NC(=O)[C@H](Cc1c[nH]c2ccccc12)NC(=O)[C@H](CCC(N)=O)NC(=O)CCCCCNC(=O)CC[C@H](NC(=S)Nc1ccc(C[C@H]2CN(CC(=O)O)CCN(CC(=O)O)CCN2CC(=O)O)cc1)C(=O)NCCCC[C@@H]1NC(=O)[C@@H](Cc2ccc(O)cc2)NC(=O)[C@H](CC(=O)O)NC(=O)CNC(=O)[C@H](CCCNC(=N)N)NC1=O)C(C)C)C(N)=O [^64Cu-NOTA-RGD-BBN, metal not drawn] . 3.5

###

Test: in vivo
Design: species or system mice
Details: female, BALB/c, mouse, iv, 3.7 MBq, total radioactivity
Description: The 4T1 murine breast cancer cell line was purchased from American Type Culture Collection and grown in RMPI 1640 medium (Invitrogen Corp.) supplemented with 10% (v/v) fetal bovine serum (Invitrogen) at 37° C. with 5% CO2. The 4T1 tumor model was generated by subcutaneous injection of 5×10^6 tumor cells into the left front flank of female normal BALB/c mice (Harlan). Five-minute static PET images were then acquired at 2 h after injection (n=3/group).
Metric Name: tissue uptake at 2 h (%ID/g)
Please respond with the number in %ID/g and leave the unit unwritten.

If you can, please state the reported tissue uptake at 2 h value of CSCC[C@H](NC(=O)[C@H](CC(C)C)NC(=O)[C@H](Cc1c[nH]cn1)NC(=O)CNC(=O)[C@@H](NC(=O)[C@H](C)NC(=O)[C@H](Cc1c[nH]c2ccccc12)NC(=O)[C@H](CCC(N)=O)NC(=O)CCCCCNC(=O)CC[C@H](NC(=S)Nc1ccc(C[C@H]2CN(CC(=O)O)CCN(CC(=O)O)CCN2CC(=O)O)cc1)C(=O)NCCCC[C@@H]1NC(=O)[C@@H](Cc2ccc(O)cc2)NC(=O)[C@H](CC(=O)O)NC(=O)CNC(=O)[C@H](CCCNC(=N)N)NC1=O)C(C)C)C(N)=O [^64Cu-NOTA-RGD-BBN, metal not drawn] . 1.88

If you can, please state the reported tissue uptake at 2 h value of N=C(N)NCCC[C@@H]1NC(=O)[C@H](CCCCNC(=S)Nc2ccc(C[C@H]3CN(CC(=O)O)CCN(CC(=O)O)CCN3CC(=O)O)cc2)NC(=O)[C@@H](Cc2ccc(O)cc2)NC(=O)[C@H](CC(=O)O)NC(=O)CNC1=O [^64Cu-NOTA-RGD, metal not drawn, reference compound] . 0.65

If you can, please state the reported tissue uptake at 2 h value of CSCC[C@H](NC(=O)[C@H](CC(C)C)NC(=O)[C@H](Cc1c[nH]cn1)NC(=O)CNC(=O)[C@@H](NC(=O)[C@H](C)NC(=O)[C@H](Cc1c[nH]c2ccccc12)NC(=O)[C@H](CCC(N)=O)NC(=O)CCCCCNC(=S)Nc1ccc(C[C@H]2CN(CC(=O)O)CCN(CC(=O)O)CCN2CC(=O)O)cc1)C(C)C)C(N)=O [^64Cu-NOTA-BBN, metal not drawn, reference compound] . 0.33

###

Assay: in vivo
Conditions: mouse, in vivo, iv, 5.5 MBq, total radioactivity, Liver uptake
Metric Name: tissue uptake at 4 h (%ID/g)
Please respond with the number in %ID/g and leave the unit unwritten.

Some solved entries appear below for comparison.
[
  {
    "Molecule": "CSCC[C@H](NC(=O)[C@H](CC(C)C)NC(=O)[C@H](Cc1c[nH]cn1)NC(=O)CNC(=O)[C@@H](NC(=O)[C@H](C)NC(=O)[C@H](Cc1c[nH]c2ccccc12)NC(=O)[C@H](CCC(N)=O)NC(=O)CCCCCNC(=O)CC[C@H](NC(=O)CN1CCN(CC(=O)O)CCN(CC(=O)O)CCN(CC(=O)O)CC1)C(=O)NCCCC[C@@H]1NC(=O)[C@@H](Cc2ccc(O)cc2)NC(=O)[C@H](CC(=O)O)NC(=O)CNC(=O)[C@H](CCCNC(=N)N)NC1=O)C(C)C)C(N)=O [^64Cu-DOTA-RGD-BBN, metal not drawn]",
    "Metric Name": "tissue uptake at 4 h",
    "Unit Label": "%ID/g",
    "Value Observed": 2.33
  },
  {
    "Molecule": "CSCC[C@H](NC(=O)[C@H](CC(C)C)NC(=O)[C@H](Cc1c[nH]cn1)NC(=O)CNC(=O)[C@@H](NC(=O)[C@H](C)NC(=O)[C@H](Cc1c[nH]c2ccccc12)NC(=O)[C@H](CCC(N)=O)NC(=O)CCCCCNC(=O)CC[C@H](NC(=S)Nc1ccc(C[C@H]2CN(CC(=O)O)CCN(CC(=O)O)CCN2CC(=O)O)cc1)C(=O)NCCCC[C@@H]1NC(=O)[C@@H](Cc2ccc(O)cc2)NC(=O)[C@H](CC(=O)O)NC(=O)CNC(=O)[C@H](CCCNC(=N)N)NC1=O)C(C)C)C(N)=O [^64Cu-NOTA-RGD-BBN, metal not drawn]",
    "Metric Name": "tissue uptake at 4 h",
    "Unit Label": "%ID/g",
    "Value Observed": 1.83
  }
]

If you can, please state the reported tissue uptake at 4 h value of N=C(N)NCCC[C@@H]1NC(=O)[C@H](CCCCNC(=S)Nc2ccc(C[C@H]3CN(CC(=O)O)CCN(CC(=O)O)CCN3CC(=O)O)cc2)NC(=O)[C@@H](Cc2ccc(O)cc2)NC(=O)[C@H](CC(=O)O)NC(=O)CNC1=O [^64Cu-NOTA-RGD, metal not drawn, reference compound] . 2.15

If you can, please state the reported tissue uptake at 4 h value of CSCC[C@H](NC(=O)[C@H](CC(C)C)NC(=O)[C@H](Cc1c[nH]cn1)NC(=O)CNC(=O)[C@@H](NC(=O)[C@H](C)NC(=O)[C@H](Cc1c[nH]c2ccccc12)NC(=O)[C@H](CCC(N)=O)NC(=O)CCCCCNC(=S)Nc1ccc(C[C@H]2CN(CC(=O)O)CCN(CC(=O)O)CCN2CC(=O)O)cc1)C(C)C)C(N)=O [^64Cu-NOTA-BBN, metal not drawn, reference compound] . 6.35
